Read-out: Phosphatase and tensin (PTEN), PTEN (gene 5728)
Test: LTEA_HepaRG_PTEN: Life Technologies and Expression Analysis (LTEA) Assay for Phosphatase and tensin (PTEN) using HepaRG (AID 2283523)
Conditions: mRNA level, 48 h; actives raise or lower the signal
Description: LTEA_HepaRG is a cell based, multiplexed-readout assay that uses HepaRG, a human liver cell line, with measurements taken at 48 hours after chemical dosing on a 96-well plate.LTEA_HepaRG_PTEN is one of 102 assay component(s) measured in the LTEA HepaRG cell culture assay. It is a marker of Cell proliferation, survival, death.Data from the assay component LTEA_HepaRG_PTEN was analyzed into 1 endpoint. […]
The source made the active and inactive calls. Rule for the calls: active = hit-call score of the fitted dose curve at least 0.9, where 1 is the maximum; inactive = score below 0.9.
Possible outcomes: true for active, false for inactive

{"columns": ["compound", "class"],
 "data": [
  ["Cc1ccc2ncccc2c1", "false"],
  ["NCCO", "false"],
  ["OC[C@@H](O)[C@@H](O)[C@H](O)[C@H](O)CO", "false"],
  ["CC(=O)OCCOCCOCCOC(C)=O", "false"],
  ["Nc1nc(N)c2nc(CNc3ccc(C(=O)N[C@@H](CCC(=O)O)C(=O)O)cc3)cnc2n1", "false"],
  ["Cc1nc(-c2ccc3c(c2)CCN(CCC2CCC(NC(=O)/C=C/c4ccc(F)cc4)CC2)CC3)no1 (configuration not stated)", "false"],
  ["COc1cc(-c2nc(NC(=O)c3cc4cc(C)cc(C)c4n3CC(=O)O)sc2CCC2CCCCC2)c(OC)cc1Cl", "true"],
  ["Cc1nc(C)nc(N2C[C@@H](C)N(c3ccnc([C@@H](C)O)n3)[C@@H](C)C2)n1", "false"],
  ["COc1cc(C=O)ccc1O", "false"],
  ["O=c1c(O)c(-c2ccc(O)c(O)c2)oc2cc(O)cc(O)c12", "false"],
  ["C[Si]1(C)O[Si](C)(C)O[Si](C)(C)O[Si](C)(C)O1", "false"],
  ["CC=Cc1ccc(O)c(OC)c1", "false"]
]}
